# Test system: smooth muscle of tracheal rings
# METHOD_NOTES: spasmodic contraction of tracheal rings ex vivo (histamine-induced)
# Parameters: species or system Dunkin-Hartley guinea pigs
# ASSAY_CONDITIONS: relaxation of tracheal rings contracted by histamine (50 μM); mean±SEM
Entries annotated with measured Effectiveness (Emax) (%)
Provide the reading as a plain figure in %.

Use these answered entries as a reference point.
YFWIAWYKLAN [SEQ ID NO: 18]: 38.0
QYFWIAWYKLANS [SEQ ID NO: 17]: 37.1
AQYFWIAWYKLANSK [SEQ ID NO: 4]: 38.8
RQYFWIAWYKIASNK [SEQ ID NO: 6]: 25.3
RQAFWIAWYKLANSK [SEQ ID NO: 3]: 36.7
RQYFWIAWY [SEQ ID NO: 20]: 37.8
WIAWYKL [SEQ ID NO: 23, Ac-Trp-Ile-Ala-Trp-Tyr-Lys-Leu-NH2]: 35.5
RQYFWIAW [SEQ ID NO: 22, Ac-Arg-Gln-Tyr-Phe-Trp-Ile-Ala-Trp-NH2]: 35.2

Here RQYFWIAWYKLANSA [SEQ ID NO: 2] was tested on smooth muscle of tracheal rings, and its Effectiveness (Emax) (%) came to 40.4

Hey, smooth muscle of tracheal rings data for RAYFWIAWYKLANSK [SEQ ID NO: 1] : Effectiveness (Emax) (%) came out at 45.7
